# Target System: BRSK1 (human)
# Assay Info: KINOMEscan competition binding
# Assay Setup: compound 10.0 µM
Measure Name: kinase still bound, per cent of control (%)
Answers are plain numbers, in %.

Batch lookup, kinase still bound, per cent of control per entry.
1. Cc1ccc(NC(=O)c2cccc(C(C)(C)C#N)c2)cc1Nc1ccc2ncn(C)c(=O)c2c1
2. COc1cc(N2CCN(C)CC2)ccc1Nc1nc(N)c(C(=O)c2c(Cl)cccc2Cl)s1
3. O=C(NOC[C@H](O)CO)c1ccc(F)c(F)c1Nc1ccc(I)cc1F
4. Cc1cc([C@@H](C)Nc2ccccc2C(=O)O)c2nc(N3CCOCC3)cc(=O)n2c1
5. O=C(NC1CC1)c1cccc(-c2ccc3c(NC(=O)C4CC4)n[nH]c3c2)c1
6. Cc1ccc2nc(NCCN)c3ncc(C)n3c2c1
7. C=CC(=O)Nc1cc(NC(=O)c2ccc(C)c(NC(=O)c3ccno3)c2)cc(C(F)(F)F)c1

[91, 91, 100, 99, 64, 90, 100]

The reported measurements were obtained from the kinase profiling compilation of Christmann-Franck et al. (2016).
